Quick list: PP2C Activity (25 μm) PYL4 per entry.
Assayed system: PYL4 (Arabidopsis thaliana, UniProt O80920)
Construct: 6X-His; made in house; host or cells: E. coli BL21[DE3]pLysS
Sequence (O80920 whole entry): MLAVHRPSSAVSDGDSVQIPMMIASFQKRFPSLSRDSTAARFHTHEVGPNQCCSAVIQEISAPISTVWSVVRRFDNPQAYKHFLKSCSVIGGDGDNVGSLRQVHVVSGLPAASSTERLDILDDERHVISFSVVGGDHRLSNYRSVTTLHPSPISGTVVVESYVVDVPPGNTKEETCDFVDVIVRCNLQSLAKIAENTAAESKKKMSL
Sequence (Q9CAJ0 23-511 partner): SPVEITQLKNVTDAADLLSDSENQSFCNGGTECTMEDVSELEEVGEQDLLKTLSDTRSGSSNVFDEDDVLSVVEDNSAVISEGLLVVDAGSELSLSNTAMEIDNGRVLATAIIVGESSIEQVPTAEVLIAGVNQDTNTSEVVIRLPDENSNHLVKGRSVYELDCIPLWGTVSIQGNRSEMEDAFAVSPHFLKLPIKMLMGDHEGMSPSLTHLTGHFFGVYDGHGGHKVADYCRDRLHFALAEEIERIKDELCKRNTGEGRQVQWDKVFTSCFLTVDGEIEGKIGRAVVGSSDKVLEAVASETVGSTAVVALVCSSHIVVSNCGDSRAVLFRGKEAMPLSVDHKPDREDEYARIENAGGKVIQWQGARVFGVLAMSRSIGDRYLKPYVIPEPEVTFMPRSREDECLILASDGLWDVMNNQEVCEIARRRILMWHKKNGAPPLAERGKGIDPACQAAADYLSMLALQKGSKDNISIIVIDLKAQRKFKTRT
Assay comment: receptor-mediated PP2C (HAB1) inhibition in vitro assay
Format: biochemical
Applied conditions: compound at 25 μM; control without agonist = 100%
# output: bare number, implied unit %

Here's what some known entries look like.
# Molecule, PP2C Activity (25 μm) PYL4 (%)
rows = [
    ("CC(C)(C(=O)NS(=O)(=O)Cc1ccccc1)c1ccccc1", 89),
    ("CC(C)(C(=O)NS(=O)(=O)Cc1ccc(C#N)cc1)c1cccc(F)c1", 93),
    ("CCOc1ccc(C2(C(=O)NS(=O)(=O)Cc3ccc(C#N)cc3)CC2)cc1", 94),
    ("N#Cc1ccc(CS(=O)(=O)NC(=O)C2(c3cccc(F)c3)CCOCC2)cc1", 91),
    ("Cc1cccc(C2(C(=O)NS(=O)(=O)Cc3ccc(C#N)cc3)CC2)c1", 92),
]

Ask: State its PP2C Activity (25 μm) PYL4: CC(C)(C(=O)NS(=O)(=O)Cc1ccc2cccnc2c1)c1ccccc1
Result: 96

Ask: State its PP2C Activity (25 μm) PYL4: N#Cc1ccc(CS(=O)(=O)NC(=O)C2(c3ccc(C(F)(F)F)cc3)CC2)cc1
Result: 93

Ask: State its PP2C Activity (25 μm) PYL4: CCC(CC)(C(=O)NS(=O)(=O)Cc1ccccc1C#N)c1ccccc1
Result: 85

Ask: State its PP2C Activity (25 μm) PYL4: CC(C)(C)c1ccc(C2(C(=O)NS(=O)(=O)Cc3ccc(C#N)cc3)CC2)cc1 [Compound 34]
Result: 95

Ask: State its PP2C Activity (25 μm) PYL4: COc1ccc(C(C)(C)C(=O)NS(=O)(=O)Cc2ccc(C#N)cc2)cc1
Result: 95

Ask: State its PP2C Activity (25 μm) PYL4: CC(C)(C(=O)NS(=O)(=O)Cc1ccc(C#N)cc1)c1ccc2ccccc2c1
Result: 97

Ask: State its PP2C Activity (25 μm) PYL4: CC(C)(C(=O)NS(=O)(=O)Cc1ccc(C#N)cc1)c1ccccc1F
Result: 91

Ask: State its PP2C Activity (25 μm) PYL4: N#Cc1ccc(CS(=O)(=O)NC(=O)C2(c3ccccc3)CC2)cc1
Result: 97

Ask: State its PP2C Activity (25 μm) PYL4: Cc1cc(C)cc(C2(C(=O)NS(=O)(=O)Cc3ccc(C#N)cc3)CC2)c1
Result: 91

This collection of values is drawn from patent US10757937B2.
